target: UniProt:P48048; test: Electrophysiology Assay (whole cell voltage clamp, IonWorks Quattro); format: cell-based; details: Electrophysiology IC50, Chinese hamster ovary cells stably expressing Kir1.1; block during voltage step to 0 mV
Sequence (P48048 whole entry): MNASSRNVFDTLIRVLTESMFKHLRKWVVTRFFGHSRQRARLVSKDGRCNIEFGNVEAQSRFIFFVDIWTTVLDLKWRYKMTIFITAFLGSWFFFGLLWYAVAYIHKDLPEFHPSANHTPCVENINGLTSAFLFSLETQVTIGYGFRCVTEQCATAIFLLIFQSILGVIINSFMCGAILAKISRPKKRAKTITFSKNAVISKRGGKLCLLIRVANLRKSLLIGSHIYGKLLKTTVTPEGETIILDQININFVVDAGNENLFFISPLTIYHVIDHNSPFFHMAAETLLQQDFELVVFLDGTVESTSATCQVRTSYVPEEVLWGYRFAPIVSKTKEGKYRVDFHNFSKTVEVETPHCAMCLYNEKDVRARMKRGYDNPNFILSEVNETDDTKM
Give measured IC50 for each item. Keep answers brief.
Number plus unit, in that order.

IC50 reported for this compound Cc1c([C@@H]2CN3CCN(C(=O)Cc4ccc(-n5cnnn5)cc4Cl)C[C@H]3CO2)ccc(F)c1C#N : 160 nM

Noted for COc1cc([C@@H]2CN3CCN(C(=O)Cc4ccc(-n5cnnn5)cc4)C[C@@H]3CO2)ccc1C#N : its IC50 reads 70 nM

Record summary for Cc1c([C@@H]2CN3CCN(C(=O)Cc4cc(F)c(-n5cnnn5)cc4F)C[C@H]3CO2)ccc(F)c1C#N : reported IC50 = 100 nM

Query Cc1c([C@@H]2CN3CCN(C(=O)Cc4ccc(-n5cnnn5)cc4Cl)C[C@@H]3CO2)ccc(F)c1C#N yields IC50 of 110 nM

Hello, the source for this data is patent US9573961B2, in case you need it.
